TARGET_OF_ASSAY: LspMrs N52Q (Staphylococcus aureus, UniProt Q6GHN9, N52Q)
Construct: MGSS-hexahistidine-SSGR-TEV site (ENLYFQ) (N, cleaved yes)
ASSAY: Gel-shift peptidase assay, LspMrs N52Q mutant
Overview of recorded IC50 for various compounds
Answer format: numeric, µM implied, no suffix.

- COMPOUND: "CCCC1OC(=O)C(C)CC(C)CCCCC(=O)CCCC(CC)C=CC=C(COC)CCC(O)C(O)CC(O)CNC1=O (centres unmarked) [myxovirescin, myxovirescin A1]"
  TARGET_OF_ASSAY: "LspMrs N52Q (Staphylococcus aureus, UniProt Q6GHN9, N52Q)"
  DISPLAY_UNIT: "µM"
  VALUE_MEASURED: 0.29

Now for a further compound.
Which measured IC50 belongs to CCCCCC[C@H]1OC(=O)CNC(=O)[C@H]([C@H](C)O)NC(=O)[C@H](CO)NC(=O)[C@H]([C@H](C)CC)NC(=O)[C@H](CC(C)C)N(C)C(=O)[C@@H]1C [globomycin] , tested on LspMrs N52Q (Staphylococcus aureus, UniProt Q6GHN9, N52Q)?
2.43

###

TARGET_OF_ASSAY: LspPae (lipoprotein signal peptidase II from Pseudomonas aeruginosa) (Pseudomonas aeruginosa)
Construct: made in house
ASSAY: FRET lipopeptide peptidase assay, LspPae
Format: biochemical
CONDITION_LABEL: estimated Ki’ (apparent inhibition constant), from dependence of IC50 on enzyme concentration, IC50 = Ki’ + [E]/2
PARAMETER: Ki (nM)
Give the value, in units of nM, as a plain number.

Any idea what Ki was measured for CCCC1OC(=O)C(C)CC(C)CCCCC(=O)CCCC(CC)C=CC=C(COC)CCC(O)C(O)CC(O)CNC1=O (centres unmarked) ?
2.69

Would you mind doing "CCCCCC[C@H]1OC(=O)CNC(=O)[C@H]([C@H](C)O)NC(=O)[C@H](CO)NC(=O)[C@H]([C@H](C)CC)NC(=O)[C@H](CC(C)C)N(C)C(=O)[C@@H]1C" as well?
1.96

###

TARGET_OF_ASSAY: LspPae (lipoprotein signal peptidase II from Pseudomonas aeruginosa) (Pseudomonas aeruginosa, UniProt Q9HVM5)
Construct: made in house
ASSAY: FRET lipopeptide peptidase assay, LspPae
Assay type: biochemical
CONDITION_LABEL: estimated Ki’ (apparent inhibition constant), Morrison analysis, 30 µM substrate, 0.1 µM LspPae
Measured Ki accompanies every entry in the list below.
Write the value in nM as a bare number.

- COMPOUND: "CCCC1OC(=O)C(C)CC(C)CCCCC(=O)CCCC(CC)C=CC=C(COC)CCC(O)C(O)CC(O)CNC1=O (centres unmarked)"
  DISPLAY_UNIT: "nM"
  Ki: 0.0476

Pending compound:
I have this compound here, "CCCCCC[C@H]1OC(=O)CNC(=O)[C@H]([C@H](C)O)NC(=O)[C@H](CO)NC(=O)[C@H]([C@H](C)CC)NC(=O)[C@H](CC(C)C)N(C)C(=O)[C@@H]1C" , and I need its recorded Ki.
0.74

###

TARGET_OF_ASSAY: LspPae (lipoprotein signal peptidase II from Pseudomonas aeruginosa) (Pseudomonas aeruginosa)
Construct: made in house
Sequence (Q9HVM5 1-169): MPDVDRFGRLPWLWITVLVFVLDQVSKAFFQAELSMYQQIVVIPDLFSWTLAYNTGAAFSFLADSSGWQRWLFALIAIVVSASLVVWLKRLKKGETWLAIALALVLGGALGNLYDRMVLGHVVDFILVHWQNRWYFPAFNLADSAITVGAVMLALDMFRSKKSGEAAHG
ASSAY: FRET lipopeptide peptidase assay, LspPae
Format: biochemical
CONDITION_LABEL: IC50, FRET, 0.1 µM enzyme, 30 µM substrate, initial rates
Experimental: FRET activity assays. A FRET based assay was developed using a labelled lipopeptide substrate (Supplementary Methods, Supplementary Fig. 3b) to directly monitor the protease activity of LspA. […] Reaction mixtures were prepared by vortexing (Clifton, cyclone CM-1) for 2 s and incubated at 37 °C, 800 rpm for 10 to 30 min. […] Reactions were monitored by fluorescence (Ex/Em, 320 nm/420 nm) for 30 to 60 min at 37 °C. […]
PARAMETER: pIC50
For clarity, pIC50 is expressed as the negative log10 of concentration in mol/L.

- COMPOUND: "CCCCCC[C@H]1OC(=O)CNC(=O)[C@H]([C@H](C)O)NC(=O)[C@H](CO)NC(=O)[C@H]([C@H](C)CC)NC(=O)[C@H](CC(C)C)N(C)C(=O)[C@@H]1C [globomycin]"
  pIC50: 7.24

Then this compound:
Can you look up the measured pIC50 of CCCC1OC(=O)C(C)CC(C)CCCCC(=O)CCCC(CC)C=CC=C(COC)CCC(O)C(O)CC(O)CNC1=O (centres unmarked) [myxovirescin, myxovirescin A1] for me?
7.28
